# Test system: Rhizoctonia solani
# method: Rhizoctonia solani (rice sheath blight/potato black scurf) in vitro test, radial growth on potato dextrose agar
# Type: cell-based
# testParameters: 168 h, 300 ppm in potato dextrose agar, 25° C., 60% relative humidity, seven days, read-out: control compared to the untreated check (radial growth)
Please respond with reported inhibition of growth at 300 ppm for every item in the list.

According to the records, this molecule CCN(C)C=Nc1cc(C)cc(Cc2cccc(F)c2)c1Cl displays inhibition of growth at 300 ppm of ≥ 70%

According to the records, this molecule CCN(C)C=Nc1cc(C)cc(Nc2ccc(C(C)(C)C)cc2)c1Cl displays inhibition of growth at 300 ppm of ≥ 70%

According to the records, this molecule CCN(C)C=Nc1cc(OC)cc(Cc2ccc(C)cc2)c1C displays inhibition of growth at 300 ppm of ≥ 70%

According to the records, this molecule CCN(C)C=Nc1cc(Cl)cc(Cc2ccccc2)c1C displays inhibition of growth at 300 ppm of ≥ 70%

According to the records, this molecule CCN(C)C=Nc1cc(C)cc(Cc2cc(F)c(OC)c(F)c2)c1Cl displays inhibition of growth at 300 ppm of ≥ 70%

According to the records, this molecule CCN(C)C=Nc1cc(C)cc(Cc2cccc(F)c2)c1SC displays inhibition of growth at 300 ppm of ≥ 70%

According to the records, this molecule CCN(C)C=Nc1cc(C)cc(Nc2ccc(Cl)cc2)c1Cl displays inhibition of growth at 300 ppm of ≥ 70%

According to the records, this molecule CCN(C)C=Nc1cc(C)cc(Cc2ccccc2C)c1Br displays inhibition of growth at 300 ppm of ≥ 70%

According to the records, this molecule CCN(C)C=Nc1cc(Cl)cc(Cc2cccc(Br)c2)c1C displays inhibition of growth at 300 ppm of ≥ 70%

According to the records, this molecule CCN(C)C=Nc1cc(F)cc(Cc2cccnc2)c1C displays inhibition of growth at 300 ppm of ≥ 70%

----------
# System: Rhizoctonia solani
# method: Rhizoctonia solani (rice sheath blight/potato black scurf) in vitro test, radial growth on potato dextrose agar
# Type: cell-based
# testParameters: 168 h, 300 ppm in potato dextrose agar, 25° C., 60% relative humidity, seven days, read-out: control compared to the untreated check (radial growth)
measuredQuantity: inhibition of growth at 300 ppm

According to the records, this molecule CCN(C)C=Nc1cc(F)cc(Nc2ccc(Cl)cc2F)c1C displays inhibition of growth at 300 ppm of ≥ 70%

According to the records, this molecule CCN(C)C=Nc1cc(Cl)cc(Cc2ccc(C#N)cc2)c1C displays inhibition of growth at 300 ppm of ≥ 70%

According to the records, this molecule CCN(C)C=Nc1cc(F)cc(N(C)c2cccc(C)c2F)c1C displays inhibition of growth at 300 ppm of ≥ 70%

According to the records, this molecule CCN(C)C=Nc1cc(Cl)cc(Cc2ccccc2Cl)c1C displays inhibition of growth at 300 ppm of ≥ 70%

According to the records, this molecule CCN(C)C=Nc1cc(C)cc(Cc2ccc(F)c(C(F)(F)F)c2)c1Cl displays inhibition of growth at 300 ppm of ≥ 70%

According to the records, this molecule CCc1cccc(N(C)c2cc(F)cc(N=CN(C)CC)c2C)n1 displays inhibition of growth at 300 ppm of ≥ 70%

According to the records, this molecule CCN(C)C=Nc1cc(Cl)cc(Cc2ccc(F)cc2)c1C displays inhibition of growth at 300 ppm of ≥ 70%

According to the records, this molecule CCN(C)C=Nc1cc(Cl)cc(Nc2ccc3ncsc3c2)c1C displays inhibition of growth at 300 ppm of ≥ 70%

According to the records, this molecule CCN(C)C=Nc1cc(F)cc(Nc2ccccc2F)c1C displays inhibition of growth at 300 ppm of ≥ 70%

According to the records, this molecule CCN(C)C=Nc1cc(F)cc(Nc2cccc(F)c2)c1C displays inhibition of growth at 300 ppm of ≥ 70%
